# EXPERIMENTAL DETAILS: in vitro
# MEASUREMENT SETUP: human, Caco-2, Papp A-B
RECORDED ENDPOINT: Papp A→B (×10⁻⁶ cm/s)

Before answering, review these 4 worked examples.
1. O=C(O)c1cccc(N2CC(O)(c3cnc(OCc4c(-c5c(Cl)cccc5Cl)noc4C4CC4)cn3)C2)c1 : 8.87
2. Cc1cc(C(=O)O)cc(C2CC(O)(c3cnc(OCc4c(-c5c(Cl)cccc5Cl)noc4C4CC4)cn3)C2)c1 (centres unmarked) : 0.58
3. Cc1cc(C(=O)O)cc(C2CC(O)(c3cnc(OCc4c(-c5c(Cl)cccc5Cl)noc4C(C)C)cn3)C2)c1 (centres unmarked) : 6.91
4. O=C(O)c1cccc(C2CC(O)(c3cnc(OCc4c(-c5c(Cl)cccc5Cl)noc4C4CC4)cn3)C2)c1 (centres unmarked) : 8.25

(A) COCCc1ccc(OCC(O)CNC(C)C)cc1 (centres unmarked) [Metoprolol, reference compound]
(B) CC(C)(C)NCC(O)COc1cccc2c1CC(O)C(O)C2 (centres unmarked) [Nadolol, reference compound]
(C) CC(C)c1onc(-c2c(Cl)cccc2Cl)c1COc1cnc(C2(O)CC(c3cccc(C(=O)O)c3)C2)cn1 (centres unmarked)
Q: # ascending order, key=Papp A→B Could you list the labels in the order requested?
Ans: B, C, A

---

# EXPERIMENTAL DETAILS: in vitro
# MEASUREMENT SETUP: human, Caco-2, Recovery rate A-B, Sample-01
RECORDED ENDPOINT: recovery (%)

Before answering, review these 4 worked examples.
1) CC(C)c1onc(-c2c(Cl)cccc2Cl)c1COc1cnc(C2(O)CC(c3cccc(C(=O)O)c3)C2)cn1 (centres unmarked) [TM-06] : 81
2) CC(C)(C)NCC(O)COc1cccc2c1CC(O)C(O)C2 (centres unmarked) [Nadolol, reference compound] : 91.5
3) O=C(O)c1cccc(N2CC(O)(c3cnc(OCc4c(-c5c(Cl)cccc5Cl)noc4C4CC4)cn3)C2)c1 [TM-02] : 64.9
4) Cc1cc(C(=O)O)cc(C2CC(O)(c3cnc(OCc4c(-c5c(Cl)cccc5Cl)noc4C(C)C)cn3)C2)c1 (centres unmarked) [TM-09] : 80.9

(A) O=C(O)c1cccc(C2CC(O)(c3cnc(OCc4c(-c5c(Cl)cccc5Cl)noc4C4CC4)cn3)C2)c1 (centres unmarked) [TM-01]
(B) Cc1cc(C(=O)O)cc(C2CC(O)(c3cnc(OCc4c(-c5c(Cl)cccc5Cl)noc4C4CC4)cn3)C2)c1 (centres unmarked) [TM-08]
Q: Compare recovery: is it lower for A or for B ? Mark your answer with the label of the selected entry.
Ans: A
(A: 63.9%, B: 99.6%)

---

# System: C57/BL6 mice fed MCD diet
# EXPERIMENTAL DETAILS: Pharmacodynamic test in methionine-choline deficient diet (MCD) model of non-alcoholic fatty liver disease
# Format: in vivo
# MEASUREMENT SETUP: MCD mice, 4 weeks; TM 30 mpk, obeticholic acid 40 mpk, gavage
RECORDED ENDPOINT: Food intake, 4 weeks (g)

1. O=C(O)c1cccc(C2CC(O)(c3cnc(OCc4c(-c5c(Cl)cccc5Cl)noc4C4CC4)cn3)C2)c1 (centres unmarked) [TM-01] : 1.697
2. Cc1cc(C(=O)O)cc(C2CC(O)(c3cnc(OCc4c(-c5c(Cl)cccc5Cl)noc4C(C)C)cn3)C2)c1 (centres unmarked) [TM-09] : 2.109
3. O=C(O)c1cccc(N2CC(O)(c3cnc(OCc4c(-c5c(Cl)cccc5Cl)noc4C4CC4)cn3)C2)c1 [TM-02] : 1.518
4. CC[C@H]1[C@@H](O)[C@@H]2[C@H](CC[C@]3(C)[C@@H]([C@H](C)CCC(=O)O)CC[C@@H]23)[C@@]2(C)CC[C@@H](O)C[C@@H]12 [obeticholic acid, reference compound] : 2.073
5. CC(C)c1onc(-c2c(Cl)cccc2Cl)c1COc1cnc(C2(O)CC(c3cccc(C(=O)O)c3)C2)cn1 (centres unmarked) [TM-06] : 1.932

---

# EXPERIMENTAL DETAILS: Caco-2 monolayer cell membrane transport experiment
# MEASUREMENT SETUP: human, Caco-2, Papp A-B, Sample-02, Caco-2, A-B, Sample-02
RECORDED ENDPOINT: Papp A→B

Q: Return the recorded Papp A→B value; entry: C[C@H]1O[C@@H](O[C@H]2[C@@H](O)C[C@H](O[C@H]3[C@@H](O)C[C@H](O[C@H]4CC[C@@]5(C)[C@H](CC[C@@H]6[C@@H]5C[C@@H](O)[C@]5(C)[C@@H](C7=CC(=O)OC7)CC[C@]65O)C4)O[C@@H]3C)O[C@@H]2C)C[C@H](O)[C@@H]1O [Digoxin, digoxin, reference compound]
Ans: < 0.04 ×10⁻⁶ cm/s

---

# SYSTEM: GST-labeled recombinant human FXR protein (Homo sapiens, UniProt Q96RI1)
# Sequence (Q96RI1 262-486 limits assumed): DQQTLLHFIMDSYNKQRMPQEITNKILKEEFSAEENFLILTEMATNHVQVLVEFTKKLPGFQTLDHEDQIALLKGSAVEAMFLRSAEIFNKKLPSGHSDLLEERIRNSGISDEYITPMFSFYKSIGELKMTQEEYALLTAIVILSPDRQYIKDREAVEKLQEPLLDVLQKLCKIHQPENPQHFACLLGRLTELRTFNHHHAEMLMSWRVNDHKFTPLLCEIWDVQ
# Sequence (Q15788 676-700 partner limits assumed): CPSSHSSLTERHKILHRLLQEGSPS
# EXPERIMENTAL DETAILS: Agonistic activity on FXR receptor (GST-FXR / SRC-1 bead assay, protein level)
# MEASUREMENT SETUP: 0.4 nM FXR, 30 nM SRC-1, protein level
RECORDED ENDPOINT: EC50 (µM)

(a) OC1(c2cnc(OCc3c(-c4c(Cl)cccc4Cl)noc3C3CC3)cn2)CC(c2cccc(Br)c2)C1 (stereo not shown)
(b) O=C(O)c1cccc(C2CC(O)(c3cnc(OCc4c(-c5c(Cl)cccc5Cl)noc4-c4ccccc4)cn3)C2)c1 (stereo not shown)
Q: Thinking about recorded EC50 values, which is higher, a or b ? Mark your answer with the label of the selected entry.
Ans: b

(a) OC1(c2cnc(OCc3c(-c4c(Cl)cccc4Cl)noc3C3CC3)cn2)CC(c2cccc(Sc3ccccc3)c2)C1 (stereo not shown)
(b) O=C(O)c1cccc(N2CC(O)(c3ccc(OCc4c(-c5c(Cl)cccc5Cl)noc4C4CC4)cc3Cl)C2)c1 [Compound M2, reference compound]
Q: Thinking about recorded EC50 values, which is higher, a or b ? Mark your answer with the label of the selected entry.
Ans: a
(a: 5.01 µM, b: 1.8 µM)

---

# EXPERIMENTAL DETAILS: in vitro
# MEASUREMENT SETUP: human, Caco-2
RECORDED ENDPOINT: efflux ratio

1) O=C(O)c1cccc(C2CC(O)(c3cnc(OCc4c(-c5c(Cl)cccc5Cl)noc4C4CC4)cn3)C2)c1 (stereo not shown) : 3.95
2) CC(C)c1onc(-c2c(Cl)cccc2Cl)c1COc1cnc(C2(O)CC(c3cccc(C(=O)O)c3)C2)cn1 (stereo not shown) : 5.12
3) O=C(O)c1cccc(N2CC(O)(c3cnc(OCc4c(-c5c(Cl)cccc5Cl)noc4C4CC4)cn3)C2)c1 : 3.75

(I) Cc1cc(C(=O)O)cc(C2CC(O)(c3cnc(OCc4c(-c5c(Cl)cccc5Cl)noc4C(C)C)cn3)C2)c1 (stereo not shown)
(II) Cc1cc(C(=O)O)cc(C2CC(O)(c3cnc(OCc4c(-c5c(Cl)cccc5Cl)noc4C4CC4)cn3)C2)c1 (stereo not shown)
Q: Thinking about recorded efflux ratio values, which is higher, I or II ? Mark your answer with the label of the selected entry.
Ans: II
(II: 16.9, I: 4.22)

---

# EXPERIMENTAL DETAILS: in vitro
# MEASUREMENT SETUP: human, Caco-2, Recovery rate A-B, Average
RECORDED ENDPOINT: recovery (%)

1. CC(C)c1onc(-c2c(Cl)cccc2Cl)c1COc1cnc(C2(O)CC(c3cccc(C(=O)O)c3)C2)cn1 (centres unmarked) : 74.2
2. O=C(O)c1cccc(N2CC(O)(c3cnc(OCc4c(-c5c(Cl)cccc5Cl)noc4C4CC4)cn3)C2)c1 : 70.8
3. CC(C)(C)NCC(O)COc1cccc2c1CC(O)C(O)C2 (centres unmarked) [Nadolol, reference compound] : 89.8
4. Cc1cc(C(=O)O)cc(C2CC(O)(c3cnc(OCc4c(-c5c(Cl)cccc5Cl)noc4C(C)C)cn3)C2)c1 (centres unmarked) : 81.4
5. COCCc1ccc(OCC(O)CNC(C)C)cc1 (centres unmarked) [Metoprolol, reference compound] : 93.8
6. O=C(O)c1cccc(C2CC(O)(c3cnc(OCc4c(-c5c(Cl)cccc5Cl)noc4C4CC4)cn3)C2)c1 (centres unmarked) : 71.2
7. Cc1cc(C(=O)O)cc(C2CC(O)(c3cnc(OCc4c(-c5c(Cl)cccc5Cl)noc4C4CC4)cn3)C2)c1 (centres unmarked) : 99

---

# EXPERIMENTAL DETAILS: in vitro
# MEASUREMENT SETUP: human, Caco-2, Papp B-A, Sample-02
RECORDED ENDPOINT: Papp B→A (×10⁻⁶ cm/s)
Write the number in ×10⁻⁶ cm/s without appending the unit.

Q: Return the recorded Papp B→A value; entry: O=C(O)c1cccc(C2CC(O)(c3ccc(OCc4c(-c5c(Cl)cccc5Cl)noc4C4CC4)cc3Cl)C2)c1 (stereo not shown) [Compound M3, reference compound]
Ans: 9.96
